System: Rattus norvegicus
Test: Biodistribution in Sprague-Dawley rat fat at 14.8 to 18.5 MBq, iv measured at 60 mins post-injection by gamma counting analysis
Type: ADME, organism-based, Adipose tissue
Conditions: in vivo, 1 h
ASSAY ENDPOINT: Drug uptake (% ID/g)

Cn1cc(-c2ccncc2)c(-c2ccc(OCc3ccc4cc(O[11CH3])ccc4n3)cc2)n1    0.135
Cn1ncc(-c2ccncc2)c1-c1ccc(OCc2cc(O[11CH3])c3ccccc3n2)cc1    0.139
Cn1cc(-c2ccncc2)c(-c2ccc(OCc3cc(O[11CH3])c4ccccc4n3)cc2)n1    0.278
Cn1cc(-c2ccncc2)c(-c2ccc(OCc3nc4ccccc4cc3O[11CH3])cc2)n1    0.5
